Values were extracted from paper PMC8304761.

- Tested on: LNCaP cells
- METHOD_DESCRIPTION: Proliferation assay (PrestoBlue), LNCaP
- Type: cell-based
- EXPERIMENTAL_SETUP: Homo sapiens, 72 h, R1881, Figure 2C, read-out: IC50, viability of LNCaP cells
pIC50: −log10 of the molar value.
Reported values of pIC50 for individual entries
EXPERIMENTAL_ENDPOINT: pIC50

| COMPOUND | ASSAYED_SYSTEM | VALUE_MODIFIER | OBS_VALUE |
| --- | --- | --- | --- |
| OC(CCl)CNc1cccc2c(NCC(O)CCl)cccc12 (centres unmarked) | LNCaP cells | = | 4.93 |
| CC(C)(c1ccc(OCC(O)CO)cc1)c1ccc(OCC(O)CCl)cc1 (stereo not drawn) [EPI-001, reference compound] | LNCaP cells | < | 4.60 |

###

- ASSAYED_SYSTEM: full-length AR (Homo sapiens, UniProt P10275, T878A)
- Construct: against full length AR using an AR-eGFP transcription assay in LNCaP cells; endogenous in cells; host or cells: LNCaP (LN-ARR2PB-eGFP reporter line for A1; parental LNCaP for RIME)
- Sequence (P10275 1-920 T878A): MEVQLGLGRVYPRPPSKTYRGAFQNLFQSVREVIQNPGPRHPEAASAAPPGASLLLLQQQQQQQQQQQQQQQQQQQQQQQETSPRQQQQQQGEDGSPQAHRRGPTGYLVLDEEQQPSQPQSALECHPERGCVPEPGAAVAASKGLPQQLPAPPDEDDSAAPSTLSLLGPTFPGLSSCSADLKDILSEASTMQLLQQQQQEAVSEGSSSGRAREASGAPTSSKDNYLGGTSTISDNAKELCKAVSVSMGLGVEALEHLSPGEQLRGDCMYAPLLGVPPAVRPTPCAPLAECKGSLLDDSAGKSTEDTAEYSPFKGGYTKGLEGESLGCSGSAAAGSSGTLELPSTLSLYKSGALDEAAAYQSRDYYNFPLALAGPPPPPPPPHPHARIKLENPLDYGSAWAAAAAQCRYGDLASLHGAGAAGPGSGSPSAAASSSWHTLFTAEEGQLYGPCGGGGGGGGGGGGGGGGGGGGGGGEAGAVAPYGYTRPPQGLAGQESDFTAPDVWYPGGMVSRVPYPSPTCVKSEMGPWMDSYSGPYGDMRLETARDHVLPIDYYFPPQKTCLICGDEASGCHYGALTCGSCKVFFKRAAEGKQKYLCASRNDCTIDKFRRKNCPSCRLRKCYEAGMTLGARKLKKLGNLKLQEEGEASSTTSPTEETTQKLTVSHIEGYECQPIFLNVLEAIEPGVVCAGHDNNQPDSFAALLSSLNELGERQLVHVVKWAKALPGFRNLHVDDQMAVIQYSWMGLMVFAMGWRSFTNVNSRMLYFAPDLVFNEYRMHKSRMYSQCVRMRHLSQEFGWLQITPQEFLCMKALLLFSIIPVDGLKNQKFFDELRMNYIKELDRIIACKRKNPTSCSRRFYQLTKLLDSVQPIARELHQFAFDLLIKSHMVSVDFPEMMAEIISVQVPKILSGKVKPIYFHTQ
- METHOD_DESCRIPTION: AR fluorescent (eGFP) reporter assay in LN-ARR2PB-eGFP LNCaP cells
- Format: cell-based
- EXPERIMENTAL_SETUP: LNCaP cells; read-out: IC50, full length AR, AR-eGFP transcription assay

| COMPOUND | IC50 |
| --- | --- |
| OC(CCl)CNc1cccc2c(NCC(O)CCl)cccc12 (stereo not shown) [VPC-2055] | 1 µM |

###

- METHOD_DESCRIPTION: Microsomal stability
- Format: in vitro ADME, human
- EXPERIMENTAL_SETUP: human, microsomes
Reported values of half-life for individual entries

| COMPOUND | UNIT_OF_MEASURE | half-life |
| --- | --- | --- |
| OC(CCl)COc1ccc2cc(OCC(O)CCl)ccc2c1 (stereo not shown) | min | 18 |
| O[C@@H](CCl)COc1cccc2c(OC[C@@H](O)CCl)cccc12 | min | 11 |
| O[C@H](CCl)COc1cccc2c(OC[C@H](O)CCl)cccc12 | min | 12 |
| OC(CCl)COc1ccc(Br)c2c(OCC(O)CCl)cccc12 (stereo not shown) | min | 36 |

###

pIC50: −log10 of the molar value.
Let's go through some recorded pIC50 values for ARV7 (Homo sapiens, UniProt P10275) together.

| COMPOUND | pIC50 |
| --- | --- |
| OC(CCl)COc1c(Br)ccc2c(OCC(O)CCl)c(Br)ccc12 (stereo not shown) [VPC-220027] | 5.40 |
| O=[N+]([O-])c1ccc2c(OCC(O)CCl)cccc2c1OCC(O)CCl (stereo not shown) [VPC-220054] | 5.52 |
| O=[N+]([O-])c1ccc(OCC(O)CCl)c2c([N+](=O)[O-])ccc(OCC(O)CCl)c12 (stereo not shown) [VPC-220057] | 5.10 |
| OC(CCl)COc1ccc(Br)c2c(OCC(O)CCl)ccc(Br)c12 (stereo not shown) [VPC-220028] | 5.52 |
